Give measured pKd for each item. Keep answers brief.
Study system: T1, human DLL3 protein (human, UniProt Q9NYJ7 27-492, limits assumed)
T1 construct: Soluble human DLL3 protein used in BLI; also called Delta-like protein 3
T1 sequence (looked up): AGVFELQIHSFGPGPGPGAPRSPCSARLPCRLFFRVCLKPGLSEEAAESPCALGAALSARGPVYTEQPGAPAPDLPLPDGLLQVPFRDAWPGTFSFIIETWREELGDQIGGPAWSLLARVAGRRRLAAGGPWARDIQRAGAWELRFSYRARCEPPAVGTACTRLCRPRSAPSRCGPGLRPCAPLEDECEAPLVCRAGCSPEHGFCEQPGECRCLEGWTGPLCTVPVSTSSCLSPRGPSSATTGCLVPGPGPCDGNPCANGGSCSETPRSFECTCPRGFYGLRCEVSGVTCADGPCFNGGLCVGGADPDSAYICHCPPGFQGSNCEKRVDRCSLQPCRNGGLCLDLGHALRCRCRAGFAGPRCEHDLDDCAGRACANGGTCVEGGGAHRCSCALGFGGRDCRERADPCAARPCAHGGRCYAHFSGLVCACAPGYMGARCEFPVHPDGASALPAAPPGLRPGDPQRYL
Method description: BLI, scFv-Fc against human DLL3 protein
Scale: negative log10 of molar concentration, which is what pKd denotes.

### Prompt Give its pKd value. Item: Ab.63 scFv-human IgG Fc (Fc fusion, Tested as scFv-human IgG Fc; not shown: human IgG Fc) QIVLTQSPGTLSLSPGERATLSCRASQSVTRGYLAWYQQKPGQAPRLLFYGASNRATDIPDRFSGSGSGTDFTLIISRLEPEDFAVYYCQQYGISPLTFGGGTKVEIKGGGGSGGGGSGGGGSQVQLHESGPGLVKPSETLSLTCTVSGASISSYYWSWIRQPPGKGLEWIGYIYYSGTTNFNPSLKSRVTISVDTSKNQFSLRLSSVTTADTAVYYCANLALTGFHFDYWGQGTLVTVSS
### Response 8.85

### Prompt Give its pKd value. Item: AMG757 (anti-DLL3 scFv from Amgen's patent, positive control) scFv-human IgG Fc (Fc fusion, not shown: human IgG Fc) EIVLTQSPGTLSLSPGERVTLSCRASQRVNNNYLAWYQQRPGQAPRLLIYGASSRATGIPDRFSGSGSGTDFTLTISRLEPEDFAVYYCQQYDRSPLTFGCGTKLEIKGGGGSGGGGSGGGGSQVQLQESGPGLVKPSETLSLTCTVSGGSISSYYWSWIRQPPGKCLEWIGYVYYSGTTNYNPSLKSRVTISVDTSKNQFSLKLSSVTAADTAVYYCASIAVTGFYFDYWGQGTLVTVSS
### Response 9.79

### Prompt Give its pKd value. Item: Ab.71 scFv-human IgG Fc (Fc fusion, Tested as scFv-human IgG Fc; not shown: human IgG Fc) DIGMTQSPDSLAVSLGERATINCKSSQNVLPNSNKKHYLSWYQQKPGQPPKLLIYLASTRASGVPDRFSGSGSGTDFTLTISSLQAEDVAVYYCQQYYSSPPEWTFGQGTKVEIKGGGGSGGGGSGGGGSQVQLVESGGGVVQPGRSLRLSCVASGFTFSNCGMHWVRQAPGKGLEWVAIIWYDGNIKYYGDSVKGRFTISRDNSKNTLYLQMNSLRVEDTAVYYCGRHDYGGNSFDYWGQGTLVTVSS
### Response 9.52

### Prompt Give its pKd value. Item: Ab.67 scFv-human IgG Fc (Fc fusion, Tested as scFv-human IgG Fc; not shown: human IgG Fc) DVVVTQSPLSLPVTLGQPASISCRSSQSLVYSDGNTYLNWFQQRPGQSPRRLVYQVSNRDSGVPDRFSGSGSGTDFTLKISGMEAEDAGVYYCMQGTHWPHTFGQGTKLEIKGGGGSGGGGSGGGGSEVHLVESGGGLVQPGGSLKLSCAASGFIFSGSSMHWVRQASGKGLEWIGRIRNKANNYATSYGASVQGRFTMSRDDSKNTAYLQMNSLKAEDTAVYYCTYLSGEFWGQGTLVTVSS
### Response 9.47

### Prompt Give its pKd value. Item: Ab.55 scFv-human IgG Fc (Fc fusion, Tested as scFv-human IgG Fc; not shown: human IgG Fc) EVVMTQSPLSLPVTLGQPASVSCRSSQSLLYSDGNTYLIWFQQRPGQSPRRLLYKLSTRDSGVPDRFSGSGSGTDFTLKISRVEAEDVGIYYCMQVTHWPYTFGQGTKLEIKGGGGSGGGGSGGGGSQVQLRESGPGLVKPSETLSLTCTVSGDSLKNSYWGWIRQPPGKGLEWIGYIYYSGTSSYNPSLESRVTFSADTSKNQFSLKLSSVTAADTAVYYCSREGSFDVWGRGTLVTVSS
### Response 9.71
